Hello, the source for this data is paper PMC11879040, in case you need it.

System: Thyroid hormone receptor alpha, THRA (h)
Assay: IPP THRA coactivator recruitment (agonist)
Assay type: biochemical, human
Conditions: 10 uM; agonist; T3
Counter-ions that a name gives are not always drawn.
quantity: IPP screening %, Coactivator recruitment (%)
One number for each entry, in %.

compound: C[C@H]1O[C@@H](O[C@H]2[C@@H](O)C[C@H](O[C@H]3[C@@H](O)C[C@H](O[C@H]4CC[C@@]5(C)[C@H](CC[C@@H]6[C@@H]5C[C@@H](O)[C@]5(C)[C@@H](C7=CC(=O)OC7)CC[C@]65O)C4)O[C@@H]3C)O[C@@H]2C)C[C@H](O)[C@@H]1O
quantity: IPP screening %, Coactivator recruitment
readout.number: 1.0

compound: CCOP(=S)(OCC)Oc1nc(Cl)c(Cl)cc1Cl
quantity: IPP screening %, Coactivator recruitment
readout.number: 2.0

compound: N#CC(CCc1ccc(Cl)cc1)(Cn1cncn1)c1ccccc1 (centres unmarked)
quantity: IPP screening %, Coactivator recruitment
readout.number: 2.0

compound: CC1(C)C(C=C(Cl)Cl)C1C(=O)OC(C#N)c1cccc(Oc2ccccc2)c1 (centres unmarked)
quantity: IPP screening %, Coactivator recruitment
readout.number: 0.0

compound: CC(C)(C)c1ccc(CCOc2ncnc3ccccc23)cc1
quantity: IPP screening %, Coactivator recruitment
readout.number: -1.0

Respectfully, I request IPP screening %, Coactivator recruitment for each entry included below.
1. NNc1nncc2ccccc12 [Hydralazine hydrochloride]
2. Cn1cnc([N+](=O)[O-])c1Sc1ncnc2nc[nH]c12
3. COc1ccc(CCN(C)CCCC(C#N)(c2ccc(OC)c(OC)c2)C(C)C)cc1OC (centres unmarked) [Verapamil Hydrochloride]

1. 3.0
2. 3.0
3. 1.0
